target: Orf11* (Actinoplanes teichomyceticus); experiment: isothermal titration calorimetry (ITC) of acyl-CoA ligands versus Orf11* (FIG. 9); assay type: binding; conditions: ITC; injections of 2 μl of ligand (1 mM˜5 mM) into protein solution (0.1 mM); single-site binding model (Origin 7.0, MicroCal iTC200); Orf11* expressed from pET28a(+) in E. coli BL21(DE3), no mutation stated; read-out: dissociation constant (Kd)
Sequence (Q70AY4 1-323): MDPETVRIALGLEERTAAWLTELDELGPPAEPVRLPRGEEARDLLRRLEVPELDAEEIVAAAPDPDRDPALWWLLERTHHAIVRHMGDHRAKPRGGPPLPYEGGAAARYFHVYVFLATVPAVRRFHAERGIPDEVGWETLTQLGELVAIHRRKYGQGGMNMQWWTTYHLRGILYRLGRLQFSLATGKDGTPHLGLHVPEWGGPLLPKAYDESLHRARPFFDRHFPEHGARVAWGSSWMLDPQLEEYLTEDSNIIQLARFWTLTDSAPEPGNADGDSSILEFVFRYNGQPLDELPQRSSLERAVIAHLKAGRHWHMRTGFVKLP
Some compounds, each annotated with its measured pKd.
Quick note: pKd values are minus log10 of concentrations in mol/L.

// sample CCCCCC(=O)SCCNC(=O)CCNC(=O)[C@H](O)C(C)(C)COP(=O)(O)OP(=O)(O)OC[C@H]1O[C@@H](n2cnc3c(N)ncnc32)[C@H](O)[C@@H]1OP(=O)(O)O [hexanoyl-CoA] , its pKd was 4.07

// sample CCCCCCCC(=O)SCCNC(=O)CCNC(=O)[C@H](O)C(C)(C)COP(=O)(O)OP(=O)(O)OC[C@H]1O[C@@H](n2cnc3c(N)ncnc32)[C@H](O)[C@@H]1OP(=O)(O)O [octanoyl-CoA] , its pKd was 6.00

// sample CCCCCCCCCCCCCCCC(=O)SCCNC(=O)CCNC(=O)[C@H](O)C(C)(C)COP(=O)(O)OP(=O)(O)OC[C@H]1O[C@@H](n2cnc3c(N)ncnc32)[C@H](O)[C@@H]1OP(=O)(O)O [palmitoyl-CoA] , its pKd was 6.40

// sample CCCCCCCCCCCCCCCCCC(=O)SCCNC(=O)CCNC(=O)[C@H](O)C(C)(C)COP(=O)(O)OP(=O)(O)OC[C@H]1O[C@@H](n2cnc3c(N)ncnc32)[C@H](O)[C@@H]1OP(=O)(O)O [stearoyl-CoA] , its pKd was 5.37

// sample CCCCCCCCCC(=O)SCCNC(=O)CCNC(=O)[C@H](O)C(C)(C)COP(=O)(O)OP(=O)(O)OC[C@H]1O[C@@H](n2cnc3c(N)ncnc32)[C@H](O)[C@@H]1OP(=O)(O)O [decanoyl-CoA] , its pKd was 6.00

// sample CCCCCCCCCCCC(=O)SCCNC(=O)CCNC(=O)[C@H](O)C(C)(C)COP(=O)(O)OP(=O)(O)OC[C@H]1O[C@@H](n2cnc3c(N)ncnc32)[C@H](O)[C@@H]1OP(=O)(O)O [lauroyl-CoA] , its pKd was 5.39

###

tested on: Orf11*/Dbv8; assay: Isothermal titration calorimetry (ITC) analysis of substrate-enzyme affinity; assay type: binding; conditions: ligand injected into protein solution (0.1 mM)
TEST READOUT: binding to the enzyme (ITC)

COMPOUND	TEST READOUT	RESULT
CC(C)(COP(=O)(O)OP(=O)(O)OC[C@H]1O[C@@H](n2cnc3c(N)ncnc32)[C@H](O)[C@@H]1OP(=O)(O)O)[C@@H](O)C(=O)NCCC(=O)NCCSC(=O)c1ccccc1	binding to the enzyme (ITC)	does not bind
CC(C)(COP(=O)(O)OP(=O)(O)OC[C@H]1O[C@@H](n2cnc3c(N)ncnc32)[C@H](O)[C@@H]1OP(=O)(O)O)[C@@H](O)C(=O)NCCC(=O)NCCSC(=O)CC(=O)O	binding to the enzyme (ITC)	does not bind
CC(C(=O)O)C(=O)SCCNC(=O)CCNC(=O)[C@H](O)C(C)(C)COP(=O)(O)OP(=O)(O)OC[C@H]1O[C@@H](n2cnc3c(N)ncnc32)[C@H](O)[C@@H]1OP(=O)(O)O (stereo partly shown)	binding to the enzyme (ITC)	does not bind
